All figures here come from patent US9708336B2.

Biological target: VIM-1 (Pseudomonas aeruginosa (strain ATCC 15692 / DSM 22644 / CIP 104116 / JCM 14847 / LMG 12228 / 1C / PRS 101 / PAO1))
Test: Enzyme activity: determination of IC50, fluorescence assay with CCF2-FA substrate (VIM-1)
Format: biochemical
Details: VIM-1 IC50, VIM-1 enzyme, CCF2-FA substrate
Below is a list of entries, each paired with its recorded IC50 value.
MEASURED PROPERTY: IC50

COMPOUND: NCC[C@H]1CC[C@H](c2ccc(C(F)(F)F)c(S(N)(=O)=O)c2-c2nnn[nH]2)CC1
MEASURED PROPERTY: IC50
ENDPOINT VALUE: 0.328 nM

COMPOUND: NS(=O)(=O)c1cccc(-c2cccc3sc(NC4CCN(CCF)CC4)nc23)c1-c1nnn[nH]1
MEASURED PROPERTY: IC50
ENDPOINT VALUE: 5.1 nM

COMPOUND: NS(=O)(=O)c1c(C(F)(F)F)ccc(-c2cnc(N3CCNCC3)nc2)c1-c1nnn[nH]1
MEASURED PROPERTY: IC50
ENDPOINT VALUE: 0.632 nM

COMPOUND: Nc1cc(-c2ccc(C(F)(F)F)c(S(N)(=O)=O)c2-c2nnn[nH]2)cc(N)n1
MEASURED PROPERTY: IC50
ENDPOINT VALUE: 0.799 nM

COMPOUND: NS(=O)(=O)c1cccc(C2CCCc3ncccc32)c1-c1nn[nH]n1 (centres unmarked)
MEASURED PROPERTY: IC50
ENDPOINT VALUE: 24.6 nM

COMPOUND: NS(=O)(=O)c1c(C[C@H]2CC[C@H](N)CC2)ccc(-c2ccc(C3CNC3)cc2)c1-c1nn[nH]n1
MEASURED PROPERTY: IC50
ENDPOINT VALUE: 1.3 nM

COMPOUND: NS(=O)(=O)c1c(C(F)(F)F)ccc(-c2cnc3ncccn23)c1-c1nnn[nH]1
MEASURED PROPERTY: IC50
ENDPOINT VALUE: 13.6 nM

COMPOUND: Nc1ccc(-c2ccc(CC3CCNCC3)c(S(N)(=O)=O)c2-c2nnn[nH]2)cn1
MEASURED PROPERTY: IC50
ENDPOINT VALUE: 24.8 nM

* * *

Below is a list of entries, each paired with its recorded log10 of IC50 value.
Target: IMP-1 (Serratia marcescens, UniProt P52699)
Sequence (P52699 whole entry, looked up): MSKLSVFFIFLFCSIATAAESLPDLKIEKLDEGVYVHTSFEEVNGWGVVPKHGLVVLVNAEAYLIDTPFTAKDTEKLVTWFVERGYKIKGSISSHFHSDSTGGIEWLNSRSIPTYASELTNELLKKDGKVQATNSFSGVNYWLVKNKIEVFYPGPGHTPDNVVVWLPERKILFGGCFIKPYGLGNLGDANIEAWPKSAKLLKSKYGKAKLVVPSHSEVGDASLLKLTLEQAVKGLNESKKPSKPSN
Experiment: biochemical
Type: biochemical
Settings: fluorescence assay with CCF2-FA substrate; read-out: IMP-1 IC50
MEASURED PROPERTY: log10 of IC50 (log10 of the value in nM)

COMPOUND: CS(=O)(=O)c1ccc(-c2cccc(S(N)(=O)=O)c2-c2nn[nH]n2)cc1
log10 of IC50: 1.93

COMPOUND: NS(=O)(=O)c1nccc(-c2cccnc2)c1-c1nnn[nH]1
log10 of IC50: 3.42

COMPOUND: N=C(N)N1CCC([C@H]2CC[C@H](c3ccc(C(F)(F)F)c(S(N)(=O)=O)c3-c3nnn[nH]3)CC2)CC1
log10 of IC50: -0.30

COMPOUND: Cc1ccncc1-c1ccc(C(F)(F)F)c(S(N)(=O)=O)c1-c1nnn[nH]1
log10 of IC50: 1.05

COMPOUND: Nc1nccc2cc(-c3ccc(C(F)(F)F)c(S(N)(=O)=O)c3-c3nnn[nH]3)ccc12
log10 of IC50: 0.75

COMPOUND: NS(=O)(=O)c1cccc(-c2ccc(C(=O)NCCO)cc2)c1-c1nn[nH]n1
log10 of IC50: 1.94

COMPOUND: NS(=O)(=O)c1cccc(-c2ccc(CC3OC(=O)NC3=O)cc2)c1-c1nn[nH]n1 (centres unmarked)
log10 of IC50: 1.63

COMPOUND: NS(=O)(=O)c1nccc(N2CCC(c3ncc[nH]3)CC2)c1-c1nnn[nH]1
log10 of IC50: 3.53

* * *

System: Serratia marcescens expressing IMP-1 (CL5741)
Assay: Antibiotic potentiation activity: synergistic concentration (MITC95) with imipenem, OD600 growth
Type: cell-based
Conditions: concentration giving 95% inhibition of bacterial growth
Protocol: Antibiotic Potentiation Activity: Determination of Synergistic Concentration The bacterial strains tested included the clinical strains Escherichia coli expressing NDM-1 (CLB30005, CLB30016), Serratia marcescens expressing IMP-1 (CL5741), and Klebsiella pneumoniae expressing VIM-1 (IHMA599644) Inhibitor activity was measured in the presence and absence of imipenem in a 384-well microplate. […]
MEASURED PROPERTY: Serratia marcescens expressing IMP-1 (CL5741) MITC95 (µM)

LINE NOTATION: CC(C)n1nccc1-c1cccc(S(N)(=O)=O)c1-c1nn[nH]n1
ENDPOINT VALUE: 62.5
//
LINE NOTATION: NS(=O)(=O)c1cccc(-c2cnc(N3CCOCC3)nc2)c1-c1nn[nH]n1
ENDPOINT VALUE: 12.5
//
LINE NOTATION: NS(=O)(=O)c1nccc(NC2CCCCC2)c1-c1nnn[nH]1
ENDPOINT VALUE: 100
//
LINE NOTATION: Cc1ccc(Cc2cccc(S(N)(=O)=O)c2-c2nnn[nH]2)cc1
ENDPOINT VALUE: 12.5
//
LINE NOTATION: NS(=O)(=O)c1cccc(-c2cncc(F)c2)c1-c1nn[nH]n1
ENDPOINT VALUE: 50
//
LINE NOTATION: NS(=O)(=O)c1nccc(NCc2ccccc2)c1-c1nnn[nH]1
ENDPOINT VALUE: 200
//
LINE NOTATION: Cc1nc(F)ccc1-c1cccc(S(N)(=O)=O)c1-c1nn[nH]n1
ENDPOINT VALUE: 150
//
LINE NOTATION: NS(=O)(=O)c1cccc(-c2cnn(Cc3ccncc3)c2)c1-c1nn[nH]n1
ENDPOINT VALUE: 14.06
//
LINE NOTATION: NS(=O)(=O)c1cccc(-c2ccc3c(c2)OCCO3)c1-c1nn[nH]n1
ENDPOINT VALUE: 14.06
//
LINE NOTATION: CS(=O)(=O)Nc1ccc(-c2ccnc(S(N)(=O)=O)c2-c2nn[nH]n2)cc1
ENDPOINT VALUE: 4.125
//
LINE NOTATION: NS(=O)(=O)c1cccc(-c2ccc(C(=O)NC3CC3)cc2)c1-c1nn[nH]n1
ENDPOINT VALUE: 12.5
//
LINE NOTATION: Nc1ccc(-c2ccnc(S(N)(=O)=O)c2-c2nn[nH]n2)cn1
ENDPOINT VALUE: 18.75
//
LINE NOTATION: COC1CCN(C(=O)c2ccc(-c3cccc(S(N)(=O)=O)c3-c3nn[nH]n3)cc2)CC1
ENDPOINT VALUE: 31.25
//
LINE NOTATION: NS(=O)(=O)c1nccc(NCCC2CCCCC2)c1-c1nnn[nH]1
ENDPOINT VALUE: 25
//
LINE NOTATION: NC(=O)c1ccc(-c2ccnc(S(N)(=O)=O)c2-c2nnn[nH]2)cc1
ENDPOINT VALUE: 37.5
//
LINE NOTATION: N#Cc1cccc(Cc2cccc(S(N)(=O)=O)c2-c2nnn[nH]2)c1
ENDPOINT VALUE: 12.5
//
LINE NOTATION: NS(=O)(=O)c1nccc(-c2ccc3[nH]nc(C(F)(F)F)c3c2)c1-c1nn[nH]n1
ENDPOINT VALUE: 75
//
LINE NOTATION: NS(=O)(=O)c1cccc(-c2cncs2)c1-c1nn[nH]n1
ENDPOINT VALUE: 12.5

* * *

Target: NDM-1 (Klebsiella pneumoniae)
Sequence (C7C422 whole entry, looked up, species assumed): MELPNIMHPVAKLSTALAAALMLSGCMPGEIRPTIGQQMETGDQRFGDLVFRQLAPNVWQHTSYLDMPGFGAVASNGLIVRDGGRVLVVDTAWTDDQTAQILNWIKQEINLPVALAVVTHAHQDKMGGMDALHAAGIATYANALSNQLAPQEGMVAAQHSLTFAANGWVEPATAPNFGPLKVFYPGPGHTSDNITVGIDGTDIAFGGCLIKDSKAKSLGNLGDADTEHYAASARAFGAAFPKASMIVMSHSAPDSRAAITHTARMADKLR
Assay: biochemical
Assay type: biochemical
Conditions: fluorescence assay with CCF2-FA substrate; read-out: NDM-1 IC50
MEASURED PROPERTY: log10(IC50) (log10 of the value in µM)

COMPOUND: NS(=O)(=O)c1nccc(NCCC2CCCCC2)c1-c1nnn[nH]1 [Example 236]
ENDPOINT VALUE: -1.41
//
COMPOUND: NS(=O)(=O)c1cccc(-c2cncnc2)c1-c1nn[nH]n1 [Example 42]
ENDPOINT VALUE: -0.27
//
COMPOUND: NS(=O)(=O)c1cccc(CCc2ccccc2)c1-c1nnn[nH]1 [Example 154]
ENDPOINT VALUE: -2.48
//
COMPOUND: Cn1cncc1C1CCN(c2ccnc(S(N)(=O)=O)c2-c2nnn[nH]2)CC1 [Example 230]
ENDPOINT VALUE: -0.69
//
COMPOUND: NS(=O)(=O)c1cccc(-c2ccc(C(=O)NC3CCOC3)cc2)c1-c1nn[nH]n1 (centres unmarked) [Example 2]
ENDPOINT VALUE: -1.28

* * *

Target: VIM-1 (Pseudomonas aeruginosa (strain ATCC 15692 / DSM 22644 / CIP 104116 / JCM 14847 / LMG 12228 / 1C / PRS 101 / PAO1))
Test: Enzyme activity: determination of IC50, fluorescence assay with CCF2-FA substrate (VIM-1)
Assay type: biochemical
Conditions: VIM-1 IC50, VIM-1 enzyme, CCF2-FA substrate
pIC50: −log10 of the molar value.
Label rule, in plain words: pIC50 of 9 and up is Yes, under 9 is No.

COMPOUND: NS(=O)(=O)Cc1cccc(-c2ccc(C(F)(F)F)c(S(N)(=O)=O)c2-c2nnn[nH]2)c1 [Example 737]
CLASS: No

COMPOUND: Nc1nc2ccc(-c3ccc(C(F)(F)F)c(S(N)(=O)=O)c3-c3nnn[nH]3)cc2s1 [Example 549]
CLASS: Yes

COMPOUND: NS(=O)(=O)c1c(C(F)(F)F)ccc([C@H]2CC[C@H](C3=NCCN3)CC2)c1-c1nnn[nH]1 [Example 506]
CLASS: No

COMPOUND: CN(CCCCN)c1nc2c(-c3cccc(S(N)(=O)=O)c3-c3nnn[nH]3)cccc2s1 [Example 645]
CLASS: No

COMPOUND: NC1(CN2CCC(c3ccc(-c4ccc(C(F)(F)F)c(S(N)(=O)=O)c4-c4nnn[nH]4)cc3)CC2)CC1 [Example 672]
CLASS: No

COMPOUND: Nc1nc2ccc(-c3ccc(C(F)(F)F)c(S(N)(=O)=O)c3-c3nnn[nH]3)cc2[nH]1 [Example 552]
CLASS: Yes

COMPOUND: NC1CCC(N[C@H]2CC[C@H](c3ccc(C(F)(F)F)c(S(N)(=O)=O)c3-c3nnn[nH]3)CC2)C1 (stereo partly drawn) [Example 691]
CLASS: No

COMPOUND: NC1=NCC(c2ccc(-c3cccc(S(N)(=O)=O)c3-c3nnn[nH]3)cc2)CN1 (stereo not drawn) [Example 511]
CLASS: No

COMPOUND: NCCCCCNc1nc2c(-c3cccc(S(N)(=O)=O)c3-c3nnn[nH]3)cccc2s1 [Example 644]
CLASS: No

COMPOUND: NS(=O)(=O)c1c(C(F)(F)F)ccc(-c2cccc3c2CCCN3)c1-c1nnn[nH]1 [Example 518]
CLASS: Yes

COMPOUND: NC[C@H]1CC[C@@H](Cc2ccc(-c3ccc(C4CNC4)cc3)c(-c3nnn[nH]3)c2S(N)(=O)=O)CC1 [Example 602]
CLASS: No

COMPOUND: NC1CCC(N[C@H]2CC[C@H](c3ccc(C(F)(F)F)c(S(N)(=O)=O)c3-c3nnn[nH]3)CC2)CC1 (stereo partly drawn) [Example 701]
CLASS: No

COMPOUND: NS(=O)(=O)c1cccc(-c2cnc3cnccn23)c1-c1nnn[nH]1 [Example 651]
CLASS: No
